Where do these numbers come from? They come from the kinase profiling compilation of Christmann-Franck et al. (2016).

system.under.test: PIM1 (human) (UniProt P11309)
Sequence (P11309 whole entry, looked up): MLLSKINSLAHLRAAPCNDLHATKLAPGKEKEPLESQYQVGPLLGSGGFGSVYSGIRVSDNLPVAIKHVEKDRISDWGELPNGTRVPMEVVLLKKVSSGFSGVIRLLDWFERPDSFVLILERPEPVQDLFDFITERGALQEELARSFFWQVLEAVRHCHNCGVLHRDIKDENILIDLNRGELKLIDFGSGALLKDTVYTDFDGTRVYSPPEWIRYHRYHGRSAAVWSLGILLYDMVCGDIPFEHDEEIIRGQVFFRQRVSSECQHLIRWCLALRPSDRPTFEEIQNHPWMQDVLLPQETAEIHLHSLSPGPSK
experimental.protocol: radiometric filter-binding kinase assay, Kinase HotSpot
measurement.context: compound 0.5 µM; ATP 10 µM
Recorded measurements of residual activity, one per entry
Just the number please, in %, no unit attached.

Illustrative cases are given below, each with its answer.
>>> reported_value("O=C(c1ccccc1)c1ccc(N2CCOCC2)cc1O")
101
>>> reported_value("COc1cc2c(cc1OC)-c1[nH]nc(Nc3cccc(F)c3)c1C2")
97.3
>>> reported_value("O=c1c2ccccc2[nH]c(=S)n1CCN1CCC(=C(c2ccc(F)cc2)c2ccc(F)cc2)CC1")
105

# return recorded residual activity for input CCCCc1c(-c2ccc(O)cc2)[nH]c2nccnc12 83.8

Give the measured residual activity for COc1cc2c(Nc3ccc(Br)cc3F)ncnc2cc1OCC1CCN(C)CC1 95
